Target: human TRPV3 (Homo sapiens)
Construct: expressed in transfected cells
Sequence (Q8NET8 whole entry): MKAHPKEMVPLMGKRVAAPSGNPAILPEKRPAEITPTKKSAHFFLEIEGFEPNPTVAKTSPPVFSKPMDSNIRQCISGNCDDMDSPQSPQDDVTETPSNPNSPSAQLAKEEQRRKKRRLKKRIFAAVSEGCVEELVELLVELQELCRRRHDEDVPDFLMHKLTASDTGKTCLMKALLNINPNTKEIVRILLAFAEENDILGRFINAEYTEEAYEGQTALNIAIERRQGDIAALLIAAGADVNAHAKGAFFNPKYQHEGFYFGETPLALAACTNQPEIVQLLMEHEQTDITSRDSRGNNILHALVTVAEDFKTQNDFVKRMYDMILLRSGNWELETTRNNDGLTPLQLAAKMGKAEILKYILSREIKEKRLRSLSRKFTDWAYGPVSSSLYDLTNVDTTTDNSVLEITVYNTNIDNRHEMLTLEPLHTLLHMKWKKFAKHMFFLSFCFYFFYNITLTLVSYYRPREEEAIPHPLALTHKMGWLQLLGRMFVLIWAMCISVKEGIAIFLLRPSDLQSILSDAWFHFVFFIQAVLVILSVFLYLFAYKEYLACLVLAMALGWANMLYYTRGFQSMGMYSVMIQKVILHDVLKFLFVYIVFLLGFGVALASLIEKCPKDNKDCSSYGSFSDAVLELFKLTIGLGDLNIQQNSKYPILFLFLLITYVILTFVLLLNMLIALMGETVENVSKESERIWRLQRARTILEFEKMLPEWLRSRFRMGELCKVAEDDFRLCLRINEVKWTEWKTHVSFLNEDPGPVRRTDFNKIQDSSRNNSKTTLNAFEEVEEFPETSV
Test: In vitro antagonism of recombinant human TRPV3 activation (FLIPR Tetra calcium assay)
Assay type: cell-based
Conditions: HEK293 cells stably expressing human TRPV3; agonist 2-APB at 80 μM; actual measured value shown parenthetically; in most cases average of at least two runs; read-out: IC50
ENDPOINT_NAME: IC50
Entry format: amount then unit.

- MOLECULE: "OC(c1ccccn1)C1(c2ccccc2OC(F)(F)F)CCC1 (stereo not drawn) [Example 10]"
  SUBJECT_OF_TEST: "human TRPV3 (Homo sapiens)"
  IC50: "1.1 µM"

Param item = OC(CC1(c2cccc(OC(F)(F)F)c2)CCC1)c1ccccn1 (stereo not drawn) [Example 77] ; retrieve measured IC50.
0.76 µM

Param item = O[C@H](c1ccccn1)[C@@]1(c2ccc(Cl)c(Cl)c2)CCO1 [Example 135] ; retrieve measured IC50.
1.01 µM

----------
Test: In vitro rat microsomal stability assay
Assay type: in vitro ADME, rat (Sprague-Dawley)
Details: Sprague-Dawley, rat, microsomes, 0.5 h, 0.5 μM, pH 7.4
Tick 1 if RAT MICROSOMAL STABILITY (% REMAINING AFTER 30 MINUTES) is 20% or greater. Tick 0 if RAT MICROSOMAL STABILITY (% REMAINING AFTER 30 MINUTES) is less than 20%.

- COMPOUND: "CN[C@@H]1CCC[C@H]1[C@@H](O)C1(c2ccc(Cl)c(Cl)c2)CCC1"
  DISCRETE_LABEL: 1
- COMPOUND: "OC(C1CCc2cccnc21)C1(c2ccc(Cl)c(Cl)c2)CCC1 (stereo not shown) [Example 168]"
  DISCRETE_LABEL: 0
- COMPOUND: "NC1CCCC1C(O)C1(c2ccc(C(F)(F)F)cc2)CCC1 (stereo not shown)"
  DISCRETE_LABEL: 1
- COMPOUND: "O=C1CC(c2cccc(OC(F)(F)F)c2)(C(O)c2ccccn2)C1 (stereo not shown)"
  DISCRETE_LABEL: 1
- COMPOUND: "O[C@H](c1ccccn1)[C@@]1(c2ccc(Cl)c(Cl)c2)CCO1"
  DISCRETE_LABEL: 0

Record N[C@H]1CCC[C@H]1[C@H](O)C1(c2ccc(Cl)c(Cl)c2)CCC1 ; criterion: RAT MICROSOMAL STABILITY (% REMAINING AFTER 30 MINUTES) no lower than 20%. Met?
1

Record OC(c1ccccn1)C1(C2CCCc3ccccc32)CCC1 (stereo not shown) ; criterion: RAT MICROSOMAL STABILITY (% REMAINING AFTER 30 MINUTES) no lower than 20%. Met?
0

Record O[C@H](c1ccccn1)C1(c2ccc(Cl)c(Cl)c2)CCC1 ; criterion: RAT MICROSOMAL STABILITY (% REMAINING AFTER 30 MINUTES) no lower than 20%. Met?
0

Record OC(c1ccccn1)C1(C2CCCC2)CCC1 (stereo not shown) ; criterion: RAT MICROSOMAL STABILITY (% REMAINING AFTER 30 MINUTES) no lower than 20%. Met?
0

Record OC(c1ccccn1)C1(c2cccc(C(F)(F)F)c2)CC2(C1)OCCO2 (stereo not shown) ; criterion: RAT MICROSOMAL STABILITY (% REMAINING AFTER 30 MINUTES) no lower than 20%. Met?
0

Record NC1CCCC1C(O)C1(c2ccc(OC(F)(F)F)cc2)CCC1 (stereo not shown) ; criterion: RAT MICROSOMAL STABILITY (% REMAINING AFTER 30 MINUTES) no lower than 20%. Met?
1

Record OC1CC(c2ccc(Cl)c(Cl)c2)(C(O)c2ccccn2)C1 (single isomer, unassigned) [Example 247] ; criterion: RAT MICROSOMAL STABILITY (% REMAINING AFTER 30 MINUTES) no lower than 20%. Met?
1

Record O=C1CC(c2cncc(C(F)(F)F)c2)(C(O)c2ccccn2)C1 (stereo not shown) ; criterion: RAT MICROSOMAL STABILITY (% REMAINING AFTER 30 MINUTES) no lower than 20%. Met?
0
